molecular target: TRPM8 (Homo sapiens); construct: purchased Eurofins (Cerep) item #3316; experiment: TRPM8 Human Transient Potential Ion Channel Cell Based Agonist Calcium Flux Assay (Eurofins Cerep item #3316); settings: control activator ligand icilin, read-out: Percent Agonist
Sequence (Q7Z2W7 whole entry): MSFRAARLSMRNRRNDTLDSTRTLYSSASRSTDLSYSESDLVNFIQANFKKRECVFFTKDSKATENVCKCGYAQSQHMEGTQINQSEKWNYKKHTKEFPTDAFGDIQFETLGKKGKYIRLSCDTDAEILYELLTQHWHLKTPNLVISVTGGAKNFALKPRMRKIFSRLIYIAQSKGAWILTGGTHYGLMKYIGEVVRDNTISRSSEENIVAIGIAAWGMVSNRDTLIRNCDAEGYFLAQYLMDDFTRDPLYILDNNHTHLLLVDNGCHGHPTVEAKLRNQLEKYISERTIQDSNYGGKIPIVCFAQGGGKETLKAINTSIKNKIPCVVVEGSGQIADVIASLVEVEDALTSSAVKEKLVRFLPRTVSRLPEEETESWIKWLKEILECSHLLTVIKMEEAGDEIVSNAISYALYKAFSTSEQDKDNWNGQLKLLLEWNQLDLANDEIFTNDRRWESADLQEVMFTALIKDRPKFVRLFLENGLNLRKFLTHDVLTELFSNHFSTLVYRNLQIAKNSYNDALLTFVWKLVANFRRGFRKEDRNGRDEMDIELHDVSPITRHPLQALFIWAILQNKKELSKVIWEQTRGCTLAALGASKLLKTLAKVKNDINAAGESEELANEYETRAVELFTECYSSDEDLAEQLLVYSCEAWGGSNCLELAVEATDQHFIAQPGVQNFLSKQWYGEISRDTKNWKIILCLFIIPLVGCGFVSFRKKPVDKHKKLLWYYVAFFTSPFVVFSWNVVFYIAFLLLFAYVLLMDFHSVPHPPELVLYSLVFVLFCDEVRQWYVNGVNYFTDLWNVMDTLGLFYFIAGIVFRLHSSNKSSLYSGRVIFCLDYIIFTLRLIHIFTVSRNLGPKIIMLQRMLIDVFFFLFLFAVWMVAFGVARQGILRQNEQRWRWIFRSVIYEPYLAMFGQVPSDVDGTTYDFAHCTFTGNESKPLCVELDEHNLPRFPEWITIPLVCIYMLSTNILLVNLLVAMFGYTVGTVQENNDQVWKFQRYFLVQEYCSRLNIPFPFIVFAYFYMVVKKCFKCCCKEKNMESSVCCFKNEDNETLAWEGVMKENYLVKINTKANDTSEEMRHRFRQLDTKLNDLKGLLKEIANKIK
In this section, each of the compounds is paired with its reported Emax.

compound	test system	Emax
CC(C)[C@@H]1CC[C@@H](C)C[C@H]1C(=O)Nc1ccc(B2OC(C)(C)C(C)(C)O2)cc1 [Compound 22]	TRPM8 (Homo sapiens)	> 100%
CON(C)C(=O)C12CC(NC(=O)[C@@H]3C[C@H](C)CC[C@H]3C(C)C)(C1)C2 [Compound 49]	TRPM8 (Homo sapiens)	> 75%
CC(C)[C@@H]1CC[C@@H](C)C[C@H]1C(=O)Nc1ccc(N2CCN(C)CC2)cc1 [Compound 2]	TRPM8 (Homo sapiens)	> 100%
COC(=O)c1ccc(NC(=O)[C@@H]2C[C@H](C)CC[C@H]2C(C)C)cn1 [Compound 78]	TRPM8 (Homo sapiens)	> 75%
COCCO[C@H]1CC[C@H](NC(=O)[C@@H]2C[C@H](C)CC[C@H]2C(C)C)CC1 [Compound 52]	TRPM8 (Homo sapiens)	> 100%
CC(C)[C@@H]1CC[C@@H](C)C[C@H]1C(=O)Nc1ccc(S(C)(=O)=O)nc1 [Compound 84]	TRPM8 (Homo sapiens)	> 75%
CCOC(=O)CC1(c2ccc(NC(=O)[C@@H]3C[C@H](C)CC[C@H]3C(C)C)cc2)COC1 [Compound 24]	TRPM8 (Homo sapiens)	> 100%
COCCOCCOc1cccc(NC(=O)[C@@H]2C[C@H](C)CC[C@H]2C(C)C)c1 [Compound 9]	TRPM8 (Homo sapiens)	> 75%

----------
molecular target: TRPM8 (Homo sapiens); construct: purchased Eurofins (Cerep) item #3316; experiment: TRPM8 Human Transient Potential Ion Channel Cell Based Agonist Calcium Flux Assay (Eurofins Cerep item #3316); settings: room temperature
measurement name: EC50

molecule	value
CC(C)[C@@H]1CC[C@@H](C)C[C@H]1C(=O)NC1CC2C(C1)C2(F)F (some centres unmarked) [92 or 102]	< 100 nM
CC(C)[C@@H]1CC[C@@H](C)C[C@H]1C(=O)Nc1cncc(Cl)c1	< 1000 nM
CC(C)[C@@H]1CC[C@@H](C)C[C@H]1C(=O)N[C@H]1CCC(F)(F)C1	< 500 nM
COC(=O)Cn1cc(NC(=O)[C@@H]2C[C@H](C)CC[C@H]2C(C)C)cn1	< 7500 nM
CC(C)[C@@H]1CC[C@@H](C)C[C@H]1C(=O)NC1COC1	< 500 nM
CC(C)[C@@H]1CC[C@@H](C)C[C@H]1C(=O)NC1CN(CC(=O)OC(C)(C)C)C1	> 10000 nM
CC(C)[C@@H]1CC[C@@H](C)C[C@H]1C(=O)NC12CC(CCO)(C1)C2	< 1000 nM
CC(C)[C@@H]1CC[C@@H](C)C[C@H]1C(=O)N1CC(C)(CC(F)F)C1	> 10000 nM
CC(C)[C@@H]1CC[C@@H](C)C[C@H]1C(=O)NC1CN(CCO)C1	< 10000 nM
CC(C)[C@@H]1CC[C@@H](C)C[C@H]1C(=O)NCCC1CC1(F)F (some centres unmarked)	< 1000 nM
CC(C)[C@@H]1CC[C@@H](C)C[C@H]1C(=O)Nc1ccc(C2CC2)cc1	< 100 nM
CCOC(=O)CC1(c2ccc(NC(=O)[C@@H]3C[C@H](C)CC[C@H]3C(C)C)cc2)COC1	< 500 nM
CC(C)[C@@H]1CC[C@@H](C)C[C@H]1C(=O)Nc1ccc(C2(O)COC2)cc1	< 100 nM
CC(C)[C@@H]1CC[C@@H](C)C[C@H]1C(=O)Nc1ccncn1	< 5000 nM
CC(C)[C@@H]1CC[C@@H](C)C[C@H]1C(=O)NC12CC(C(=O)OC(C)(C)C)(C1)C2	< 100 nM
COCCOCCOc1ccc(NC(=O)[C@@H]2C[C@H](C)CC[C@H]2C(C)C)cc1	< 500 nM
COc1ccc(NC(=O)[C@@H]2C[C@H](C)CC[C@H]2C(C)C)cn1	< 100 nM
